The measurements presented in this section are drawn from paper PMC9147192.

# system name: USP24 (Homo sapiens, UniProt Q9UPU5)
# Sequence (Q9UPU5 whole entry): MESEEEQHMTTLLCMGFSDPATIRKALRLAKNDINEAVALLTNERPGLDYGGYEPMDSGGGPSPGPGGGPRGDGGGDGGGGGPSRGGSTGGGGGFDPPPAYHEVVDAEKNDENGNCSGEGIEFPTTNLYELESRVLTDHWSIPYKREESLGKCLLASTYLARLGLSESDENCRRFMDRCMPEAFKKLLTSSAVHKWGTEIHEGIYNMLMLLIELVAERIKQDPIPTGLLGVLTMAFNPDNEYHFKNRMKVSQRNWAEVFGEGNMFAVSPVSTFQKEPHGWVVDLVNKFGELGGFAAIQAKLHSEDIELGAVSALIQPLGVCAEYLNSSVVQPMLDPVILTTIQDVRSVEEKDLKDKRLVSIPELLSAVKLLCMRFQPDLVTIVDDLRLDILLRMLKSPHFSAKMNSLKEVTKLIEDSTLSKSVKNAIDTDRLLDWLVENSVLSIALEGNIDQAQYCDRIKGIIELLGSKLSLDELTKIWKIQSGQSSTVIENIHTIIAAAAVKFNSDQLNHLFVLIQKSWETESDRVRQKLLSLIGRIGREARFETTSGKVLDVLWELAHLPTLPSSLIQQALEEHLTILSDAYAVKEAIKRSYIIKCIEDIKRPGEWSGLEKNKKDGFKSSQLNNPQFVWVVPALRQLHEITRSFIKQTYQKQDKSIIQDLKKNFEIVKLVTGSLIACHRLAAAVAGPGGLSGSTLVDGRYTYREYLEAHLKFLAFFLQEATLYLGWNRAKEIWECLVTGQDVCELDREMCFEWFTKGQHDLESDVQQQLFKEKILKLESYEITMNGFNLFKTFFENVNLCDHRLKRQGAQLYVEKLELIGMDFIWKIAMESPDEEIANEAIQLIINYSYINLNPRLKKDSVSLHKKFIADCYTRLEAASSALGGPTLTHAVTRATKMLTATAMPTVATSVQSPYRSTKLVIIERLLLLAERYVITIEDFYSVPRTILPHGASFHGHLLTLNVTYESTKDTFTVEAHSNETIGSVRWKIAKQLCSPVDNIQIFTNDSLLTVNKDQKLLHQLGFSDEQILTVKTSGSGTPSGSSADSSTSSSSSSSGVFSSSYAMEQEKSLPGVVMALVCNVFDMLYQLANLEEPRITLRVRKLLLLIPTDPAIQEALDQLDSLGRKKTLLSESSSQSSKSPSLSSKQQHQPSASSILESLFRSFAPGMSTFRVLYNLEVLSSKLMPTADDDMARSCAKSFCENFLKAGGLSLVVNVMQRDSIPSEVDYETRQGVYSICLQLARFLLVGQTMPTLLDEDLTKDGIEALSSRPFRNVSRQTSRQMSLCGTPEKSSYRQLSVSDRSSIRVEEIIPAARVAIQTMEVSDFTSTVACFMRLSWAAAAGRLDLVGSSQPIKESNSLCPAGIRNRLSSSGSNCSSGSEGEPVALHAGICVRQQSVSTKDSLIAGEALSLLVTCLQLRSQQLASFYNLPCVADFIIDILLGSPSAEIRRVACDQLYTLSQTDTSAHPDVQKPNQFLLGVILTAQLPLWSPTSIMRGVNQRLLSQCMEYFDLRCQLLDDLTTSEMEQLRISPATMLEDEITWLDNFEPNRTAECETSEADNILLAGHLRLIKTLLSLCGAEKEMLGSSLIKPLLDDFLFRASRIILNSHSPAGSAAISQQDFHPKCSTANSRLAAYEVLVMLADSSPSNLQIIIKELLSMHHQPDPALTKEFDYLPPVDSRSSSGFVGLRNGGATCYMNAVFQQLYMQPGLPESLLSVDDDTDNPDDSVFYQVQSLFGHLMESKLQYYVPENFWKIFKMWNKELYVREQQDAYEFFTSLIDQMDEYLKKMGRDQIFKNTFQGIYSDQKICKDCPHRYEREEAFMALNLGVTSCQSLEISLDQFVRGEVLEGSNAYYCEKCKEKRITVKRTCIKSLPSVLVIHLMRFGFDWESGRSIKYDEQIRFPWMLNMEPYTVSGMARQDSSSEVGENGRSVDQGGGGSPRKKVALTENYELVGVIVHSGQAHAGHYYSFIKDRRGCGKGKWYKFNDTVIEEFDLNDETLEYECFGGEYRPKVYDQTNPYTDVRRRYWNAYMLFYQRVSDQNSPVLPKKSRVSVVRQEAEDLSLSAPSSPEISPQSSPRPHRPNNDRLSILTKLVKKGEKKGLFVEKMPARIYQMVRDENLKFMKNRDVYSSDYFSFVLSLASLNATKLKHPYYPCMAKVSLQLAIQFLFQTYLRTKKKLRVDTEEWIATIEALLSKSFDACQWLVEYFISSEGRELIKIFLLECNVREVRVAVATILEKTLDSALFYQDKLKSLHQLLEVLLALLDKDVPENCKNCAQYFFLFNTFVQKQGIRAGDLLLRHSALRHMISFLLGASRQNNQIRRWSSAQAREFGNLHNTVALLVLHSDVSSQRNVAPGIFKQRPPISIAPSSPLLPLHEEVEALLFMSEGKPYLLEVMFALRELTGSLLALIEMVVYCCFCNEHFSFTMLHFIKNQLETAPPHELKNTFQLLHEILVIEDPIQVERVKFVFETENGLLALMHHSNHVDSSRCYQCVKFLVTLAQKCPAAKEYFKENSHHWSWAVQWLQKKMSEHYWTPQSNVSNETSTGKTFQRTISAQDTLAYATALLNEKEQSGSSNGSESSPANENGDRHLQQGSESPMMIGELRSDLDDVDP
# protocol text: TPP-CCR in living HL-60 cells

- smiles repr: "Cn1c(NC[C@@H](N)Cc2ccccc2)nc(-c2ccncc2)c(-c2ccc3ccccc3c2)c1=O"
  EC50, nM: 2.69

====

# system name: CANX (Homo sapiens, UniProt P27824)
# Construct: endogenous in cells
# Sequence (P27824 21-592): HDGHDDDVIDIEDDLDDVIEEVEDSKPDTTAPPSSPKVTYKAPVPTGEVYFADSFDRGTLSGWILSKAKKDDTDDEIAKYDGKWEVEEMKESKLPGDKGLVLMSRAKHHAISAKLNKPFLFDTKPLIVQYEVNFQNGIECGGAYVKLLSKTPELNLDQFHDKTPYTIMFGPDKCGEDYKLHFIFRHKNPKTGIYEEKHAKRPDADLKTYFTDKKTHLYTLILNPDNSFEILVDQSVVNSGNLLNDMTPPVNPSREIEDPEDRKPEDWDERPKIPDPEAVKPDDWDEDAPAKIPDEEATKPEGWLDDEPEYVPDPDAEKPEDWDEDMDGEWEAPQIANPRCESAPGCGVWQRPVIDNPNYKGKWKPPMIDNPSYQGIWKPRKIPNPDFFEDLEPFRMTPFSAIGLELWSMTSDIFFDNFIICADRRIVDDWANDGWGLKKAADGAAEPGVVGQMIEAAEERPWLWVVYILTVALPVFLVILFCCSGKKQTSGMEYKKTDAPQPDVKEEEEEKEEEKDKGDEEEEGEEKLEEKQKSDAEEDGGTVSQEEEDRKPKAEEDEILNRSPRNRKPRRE
# protocol text: TPP-CCR in living HL-60 cells
# condition description: living HL-60 cells, […] °C, TMT-MS

- compound: "Cc1cnc(Nc2ccc(F)cc2Cl)nc1-c1c[nH]c(C(=O)N[C@H](CO)c2cccc(Cl)c2)c1 [ERK 11e]"
  units symbol: "nM"
  EC50: 871

====

# system name: NUDT1 (Homo sapiens, UniProt P36639)
# protocol text: TPP-CCR in living HL-60 cells
pEC50: −log10 of the molar value.

- smiles repr: "Cn1c(NC[C@@H](N)Cc2ccccc2)nc(-c2ccncc2)c(-c2ccc3ccccc3c2)c1=O"
  pEC50: 5.64

====

# system name: OGDH (Homo sapiens)
# Construct: endogenous in cells
# protocol text: TPP-CCR in living HL-60 cells
# condition description: living HL-60 cells, […] °C, TMT-MS

- compound: "Cc1cnc(Nc2ccc(F)cc2Cl)nc1-c1c[nH]c(C(=O)N[C@H](CO)c2cccc(Cl)c2)c1 [ERK 11e]"
  EC50: "417 nM"

====

# system name: FECH (Homo sapiens)
# Construct: endogenous in cells
# Sequence (P22830 55-423): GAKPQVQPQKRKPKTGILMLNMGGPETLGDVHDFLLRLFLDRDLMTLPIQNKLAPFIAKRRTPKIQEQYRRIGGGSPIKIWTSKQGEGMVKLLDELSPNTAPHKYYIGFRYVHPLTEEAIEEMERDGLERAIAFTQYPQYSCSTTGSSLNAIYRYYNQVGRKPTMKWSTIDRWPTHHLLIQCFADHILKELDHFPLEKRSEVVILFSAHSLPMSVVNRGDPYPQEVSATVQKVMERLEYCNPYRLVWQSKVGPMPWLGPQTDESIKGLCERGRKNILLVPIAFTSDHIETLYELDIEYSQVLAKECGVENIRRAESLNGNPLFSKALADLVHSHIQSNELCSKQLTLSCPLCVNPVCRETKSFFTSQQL
# protocol text: TPP-CCR in living HL-60 cells
# condition description: living HL-60 cells, […] °C, TMT-MS
pEC50: −log10 of the molar value.

- compound: "Cc1cnc(Nc2ccc(F)cc2Cl)nc1-c1c[nH]c(C(=O)N[C@H](CO)c2cccc(Cl)c2)c1 [ERK 11e]"
  pEC50: 6.20

====

# system name: STX4 (Homo sapiens)
# Sequence (Q12846 whole entry): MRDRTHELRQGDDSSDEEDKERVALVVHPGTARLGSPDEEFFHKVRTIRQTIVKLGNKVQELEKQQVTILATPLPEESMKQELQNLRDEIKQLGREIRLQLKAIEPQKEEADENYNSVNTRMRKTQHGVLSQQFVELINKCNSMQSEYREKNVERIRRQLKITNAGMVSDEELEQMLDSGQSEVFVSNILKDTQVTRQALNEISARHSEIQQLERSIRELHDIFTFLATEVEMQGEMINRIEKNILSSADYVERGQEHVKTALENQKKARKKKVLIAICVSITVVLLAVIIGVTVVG
# protocol text: TPP-CCR in living HL-60 cells
pEC50: −log10 of the molar value.

- smiles repr: "Cn1c(NC[C@@H](N)Cc2ccccc2)nc(-c2ccncc2)c(-c2ccc3ccccc3c2)c1=O"
  pEC50: 6.88

====

# system name: PFAS (Homo sapiens, UniProt O15067)
# Construct: endogenous in cells
# Sequence (O15067 whole entry): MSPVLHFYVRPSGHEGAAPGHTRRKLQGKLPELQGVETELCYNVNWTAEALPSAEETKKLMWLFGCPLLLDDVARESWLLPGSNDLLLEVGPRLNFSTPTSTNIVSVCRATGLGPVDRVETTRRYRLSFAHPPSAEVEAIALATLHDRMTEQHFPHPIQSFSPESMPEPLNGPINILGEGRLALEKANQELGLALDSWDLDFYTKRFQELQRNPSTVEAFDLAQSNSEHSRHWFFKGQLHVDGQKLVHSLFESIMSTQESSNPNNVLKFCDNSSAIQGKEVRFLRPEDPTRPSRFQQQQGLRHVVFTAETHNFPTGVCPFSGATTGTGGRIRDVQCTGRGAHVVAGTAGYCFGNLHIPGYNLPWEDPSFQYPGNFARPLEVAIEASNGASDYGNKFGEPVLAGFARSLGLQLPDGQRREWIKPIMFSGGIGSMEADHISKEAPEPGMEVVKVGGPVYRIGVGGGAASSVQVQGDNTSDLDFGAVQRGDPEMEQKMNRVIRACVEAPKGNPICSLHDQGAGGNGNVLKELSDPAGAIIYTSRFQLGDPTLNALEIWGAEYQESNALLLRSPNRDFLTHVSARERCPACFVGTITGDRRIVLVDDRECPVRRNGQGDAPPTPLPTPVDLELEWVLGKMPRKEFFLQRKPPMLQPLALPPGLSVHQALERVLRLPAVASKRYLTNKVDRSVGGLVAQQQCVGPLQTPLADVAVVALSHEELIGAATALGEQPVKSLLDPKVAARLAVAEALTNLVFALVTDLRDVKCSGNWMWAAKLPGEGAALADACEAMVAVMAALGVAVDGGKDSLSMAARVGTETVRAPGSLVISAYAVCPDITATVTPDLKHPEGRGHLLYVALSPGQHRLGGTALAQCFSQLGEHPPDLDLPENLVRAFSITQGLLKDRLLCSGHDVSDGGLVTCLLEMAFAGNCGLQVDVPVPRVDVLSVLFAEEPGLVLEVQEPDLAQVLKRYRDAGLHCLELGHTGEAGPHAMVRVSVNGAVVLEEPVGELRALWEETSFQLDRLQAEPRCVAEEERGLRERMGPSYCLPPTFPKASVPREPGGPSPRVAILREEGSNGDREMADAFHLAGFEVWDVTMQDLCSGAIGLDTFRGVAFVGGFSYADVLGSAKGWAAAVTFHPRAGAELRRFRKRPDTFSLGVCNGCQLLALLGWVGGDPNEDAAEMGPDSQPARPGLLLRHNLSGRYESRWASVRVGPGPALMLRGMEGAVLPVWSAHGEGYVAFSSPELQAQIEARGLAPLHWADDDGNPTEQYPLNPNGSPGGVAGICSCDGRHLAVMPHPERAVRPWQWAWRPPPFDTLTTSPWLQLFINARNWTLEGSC
# protocol text: TPP-CCR in living HL-60 cells
# condition description: living HL-60 cells, […] °C, TMT-MS

- compound: "Cc1cnc(Nc2ccc(F)cc2Cl)nc1-c1c[nH]c(C(=O)N[C@H](CO)c2cccc(Cl)c2)c1 [ERK 11e]"
  system name: "PFAS (Homo sapiens, UniProt O15067)"
  EC50 [nM]: 1170
